Taken from patent US9958439B2.

- EXPERIMENTAL_CONDITIONS: heparin concentration vs RFU, linear regression
Label true when Gradient Parameters (gradient of regression line) is at or above 30; otherwise label false.

Kindly determine if Gradient Parameters (gradient of regression line) recorded for `O=C([O-])C[C@H](NC(=O)Cc1cc(-c2cccs2)sc1-c1ccc(-c2sc(-c3cccs3)cc2CC(=O)N[C@@H](CC(=O)[O-])C(=O)[O-])s1)C(=O)[O-].[Na+].[Na+].[Na+].[Na+]` is above or exactly 30.
false

Next compound: `NCCCC[C@H](NC(=O)Cc1cc(-c2cccs2)sc1-c1ccc(-c2sc(-c3cccs3)cc2CC(=O)N[C@@H](CCCCN)C(=O)[O-])s1)C(=O)[O-].[Na+].[Na+]`
true

Next compound: Cl.Cl.NCCc1cc(-c2cccs2)sc1-c1ccc(-c2sc(-c3cccs3)cc2CCN)s1 [pHTEA, penta Hydrogen Thiophene Ethanol Amine]
false

Next compound: `O=C(Cc1cc(-c2cccs2)sc1-c1ccc(-c2sc(-c3cccs3)cc2CC(=O)N[C@@H](Cc2ccc([O-])cc2)C(=O)[O-])s1)N[C@@H](Cc1ccc([O-])cc1)C(=O)[O-].[Na+].[Na+].[Na+].[Na+]`
true
